Test: Selectivity ratio of Ki for sigma 2 receptor in rat liver membrane to Ki for EBP in guinea pig liver membrane
Assay type: cell membranes
Measure: Ratio Ki

Exam item: Would you kindly share the measured Ratio Ki for `Fc1cccc(F)c1[C@H]1CC[C@@H](N2CCN(c3ccccn3)CC2)CC1` ?
Marked response: 3

Exam item: Consider the compound shown here: Cc1cccc(C)c1C1=CCC(N2CCN(c3ccccn3)CC2)CC1 (racemic) What is its recorded Ratio Ki?
Marked response: 2.4

Exam item: Any idea what its Ratio Ki is? The compound is `Clc1ccccc1[C@H]1CC[C@@H](N2CCN(c3ccccn3)CC2)CC1`
Marked response: 1.8

Exam item: Please give the measured Ratio Ki for this compound: `COc1cccc(OC)c1[C@H]1CC[C@@H](N2CCN(c3ccccn3)CC2)CC1`
Marked response: 138

Exam item: Look up Ratio Ki: `Fc1cccc(F)c1[C@H]1CC[C@H](N2CCN(c3ccccn3)CC2)CC1`
Marked response: 1.2

Exam item: Quick one: Ratio Ki of `c1ccc([C@H]2CC[C@H](N3CCN(c4ccccn4)CC3)CC2)cc1` ?
Marked response: 1.6

Exam item: For the compound `Clc1ccccc1[C@H]1CC[C@H](N2CCN(c3ccccn3)CC2)CC1` , what Ratio Ki is on record?
Marked response: 4

Exam item: Which Ratio Ki reading was recorded for the compound `COc1ccccc1[C@H]1CC[C@H](N2CCN(c3ccccn3)CC2)CC1` ?
Marked response: 1.3

Exam item: Reported Ratio Ki for `COc1cccc(OC)c1[C@H]1CC[C@H](N2CCN(c3ccccn3)CC2)CC1` : what is it?
Marked response: 3.6

Exam item: Using the record for `Cc1cccc(C)c1[C@H]1CC[C@@H](N2CCN(c3ccccn3)CC2)CC1` , report its Ratio Ki.
Marked response: 1.8

Exam item: Which Ratio Ki value belongs to `Cc1ccccc1[C@H]1CC[C@@H](N2CCN(c3ccccn3)CC2)CC1` ?
Marked response: 14

Exam item: Give the measured Ratio Ki of `COc1ccc([C@H]2CC[C@H](N3CCN(c4ccccn4)CC3)CC2)cc1` .
Marked response: 3

Exam item: What does the record list as Ratio Ki for `c1ccc(CCN2CCCCC2)cc1` ?
Marked response: 0.3

Exam item: Return reported Ratio Ki; argument: `c1ccc([C@H]2CC[C@@H](N3CCN(c4ccccn4)CC3)CC2)cc1`
Marked response: 1.3

Exam item: # query: Ratio Ki of entry `COc1ccccc1[C@H]1CC[C@@H](N2CCN(c3ccccn3)CC2)CC1`
Marked response: 30

Exam item: For the compound `COc1cccc([C@H]2CC[C@H](N3CCN(c4ccccn4)CC3)CC2)c1` , what Ratio Ki is on record?
Marked response: 2

Exam item: Fill in: Ratio Ki of `Cc1ccccc1[C@H]1CC[C@H](N2CCN(c3ccccn3)CC2)CC1` is ___
Marked response: 3.3

* * *

Target: Sigma non-opioid intracellular receptor 1 (Cavia porcellus, UniProt Q60492)
Sequence (Q60492 whole entry): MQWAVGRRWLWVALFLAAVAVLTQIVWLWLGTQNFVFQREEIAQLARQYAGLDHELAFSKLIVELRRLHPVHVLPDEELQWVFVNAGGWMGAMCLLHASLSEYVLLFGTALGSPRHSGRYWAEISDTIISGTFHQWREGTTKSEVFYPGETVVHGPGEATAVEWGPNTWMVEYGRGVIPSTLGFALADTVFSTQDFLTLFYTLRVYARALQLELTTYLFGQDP
Experiment: Displacement of [3H](+)-pentazocine from sigma 1 receptor in guinea pig brain membrane without cerebellum
Measure: pKi
Note on pKi: it is the negative log10 of concentration, concentration in mol/L.

Exam item: Entry under review: `c1ccc([C@H]2CC[C@@H](N3CCN(c4ccccn4)CC3)CC2)cc1` . Reported pKi?
Marked response: 6.10

Exam item: I have this compound here, Cc1cccc(C)c1C1=CCC(N2CCN(c3ccccn3)CC2)CC1 (racemic) , and I need its recorded pKi.
Marked response: 6.75

Exam item: Item under review: `COc1ccc([C@H]2CC[C@H](N3CCN(c4ccccn4)CC3)CC2)cc1` . Reported pKi?
Marked response: 6.54

Exam item: Given the compound `Clc1ccccc1[C@H]1CC[C@@H](N2CCN(c3ccccn3)CC2)CC1` , what is its reported pKi?
Marked response: 5.96

Exam item: Please give the measured pKi for this compound: COc1ccc2c(c1)CCC(CN1CCN(c3ccccn3)CC1)C2 (stereo not given)
Marked response: 6.45

Exam item: Report pKi for COc1cccc(C2=CCC(N3CCN(c4ccccn4)CC3)CC2)c1 (stereo not given) please.
Marked response: 6.66

Exam item: Would you kindly share the measured pKi for `Fc1cccc(F)c1[C@H]1CC[C@H](N2CCN(c3ccccn3)CC2)CC1` ?
Marked response: 6.72

Exam item: Look up pKi: `COc1ccccc1[C@H]1CC[C@@H](N2CCN(c3ccccn3)CC2)CC1`
Marked response: 6.43

Exam item: Recorded pKi of `COc1cccc([C@H]2CC[C@@H](NCCOc3ccccn3)CC2)c1` , please.
Marked response: 8.11

Exam item: Form field: reported pKi of `Fc1cccc(F)c1[C@H]1CC[C@@H](N2CCN(c3ccccn3)CC2)CC1`
Marked response: 5.29
